Entries annotated with measured log10 TGI
# System: SF-539 CNS
# PROTOCOL NOTES: NCI tumour cell line growth inhibition, 48 h
log10 TGI, µM

Worked examples follow.
[[record]]
compound = "O=C(Nc1ccc(Cl)c([N+](=O)[O-])c1)Nc1nc2ccccc2s1"
result_value = 1.23

[[record]]
compound = "CCCCCCCCCCCCN1C(C)=CS/C1=C\\C=C\\c1scc(C)[n+]1CCCCCCCCCCCC"
result_value = 0.94

[[record]]
compound = "O=C(CCN1CCN(c2cccc(Cl)c2)CC1)N1CCc2c([nH]c3ccccc23)C1c1cccnc1 (centres undefined)"
result_value = 1.49

[[record]]
compound = "Cc1c(N2C(=O)/C(=C/C=C/c3ccccc3)N=C2c2ccccc2)c(=O)n(-c2ccccc2)n1C"
result_value = 1.67

[[record]]
compound = "CCn1c(=O)c(-c2ccn[nH]2)cc2c(C)nc(N)nc21"
result_value = 1.00


Exercise: Requested field: log10 TGI. Item: c1ccc2c(c1)ccc1nc(-c3ccc4c(c3)OCO4)c3c(c12)CCCC3
Solution: 1.53

Exercise: I am curious: what log10 TGI value has been reported for CCOc1c2ccsc2c(OCC)c2ccsc12 ?
Solution: 0.99

Exercise: Query (compound): Brc1cccc(/C=C/CN2CCN(CCOC(c3ccccc3)c3ccccc3)CC2)c1 ; field requested: log10 TGI
Solution: 1.51

###

# Test system: T-47D breast
# PROTOCOL NOTES: NCI tumour cell line growth inhibition, 48 h
ATTRIBUTE MEASURED: TGI

Reference set, count: 3
[[record]]
molecule = "Nc1ccccc1C#CC#Cc1ccccc1N"
study_system = "T-47D breast"
attribute_measured = "TGI"
result_value = "> 100 µM"

[[record]]
molecule = "c1ccc(N=C2c3ccccc3CN2c2ccccc2)cc1"
study_system = "T-47D breast"
attribute_measured = "TGI"
result_value = "> 100 µM"

[[record]]
molecule = "OC1(c2ccccc2)CC2CCC(C1)N2CCc1ccccc1 (stereo unspecified)"
study_system = "T-47D breast"
attribute_measured = "TGI"
result_value = "> 100 µM"


Exercise: Entry CCOC(=O)CN1CCNCCN(CC(=O)OCC)CCNCC1 has what TGI?
Solution: > 100 µM

Exercise: Request the reported TGI associated with CC1=C(/C=C/C(C)=C/C=C/C(C)=C/C(=O)OCC2OC(n3cc(F)c(=O)[nH]c3=O)CC2OC(=O)/C=C(C)/C=C/C=C(C)/C=C/C2=C(C)CCCC2(C)C)C(C)(C)CCC1 (stereo unspecified)
Solution: > 64.7 µM

Exercise: Would you mind telling me what TGI value was observed for COc1ccc(C(=O)Cn2c(C(=O)c3ccc(Cl)cc3)nc3ccccc32)cc1 ?
Solution: > 100 µM

###

TGI for assorted molecules
# Test system: RXF 393 renal
# PROTOCOL NOTES: NCI tumour cell line growth inhibition, 48 h

Known results for molecules:
[[record]]
molecule = "CC(=O)ON(OC(C)=O)c1ccc(C)cc1"
study_system = "RXF 393 renal"
attribute_measured = "TGI"
result_value = "> 100 µM"

[[record]]
molecule = "Cc1ccc(S(=O)(=O)N/N=C(\\CCN2CCCC2)CC(c2ccccc2)c2c(O)c3ccccc3oc2=O)cc1 (stereo not given)"
study_system = "RXF 393 renal"
attribute_measured = "TGI"
result_value = "> 100 µM"

[[record]]
molecule = "O=C1OC(c2ccco2)=N/C1=C\\c1ccc(Cl)c(Cl)c1"
study_system = "RXF 393 renal"
attribute_measured = "TGI"
result_value = "> 100 µM"


Exercise: So what's the measured TGI for this one? CCCN1C(=O)C/C(=C\C(C)=O)Nc2ccccc21
Solution: > 100 µM

Exercise: Fill in: TGI of CC(=O)/C(C=Nc1c(C)n(C)n(-c2ccccc2)c1=O)=C(/C)O is ___
Solution: > 100 µM

###

# Test system: RPMI-8226 leukemia
# PROTOCOL NOTES: NCI tumour cell line growth inhibition, 48 h
ATTRIBUTE MEASURED: TGI

# example entries with known answers
[[record]]
compound = "CCN(CC)C(=S)SS(=O)(=O)c1ccccc1C(=O)O"
study_system = "RPMI-8226 leukemia"
result_value = "> 100 µM"

[[record]]
compound = "O=C(Nc1ccc(Cl)c(C(F)(F)F)c1)C(=O)C(C(=O)/C=C/c1ccccc1)C1OC(=O)c2ccccc21 (stereo not given)"
study_system = "RPMI-8226 leukemia"
result_value = "> 100 µM"

[[record]]
compound = "Oc1cccc2c1NC1=C(CCC/C1=C\\c1ccccc1)C2"
study_system = "RPMI-8226 leukemia"
result_value = "> 100 µM"

[[record]]
compound = "Cc1cc(-c2ccc(C(=O)O)[nH]2)on1"
study_system = "RPMI-8226 leukemia"
result_value = "> 100 µM"


Next, consider the following compound.
Exercise: What does the record list as TGI for CC1=C(C)C(=O)c2c(c(C(=O)c3ccccc3)c3nc4ccccc4n3c2C)C1=O ?
Solution: > 100 µM

###

# Tested on: U251 CNS
Form field: GI50 (one value per entry).

Example entries begin here.
[[record]]
compound_string = "O=C(/C=C/c1ccco1)c1ccc(Nc2nc(Nc3ccc(F)cc3)nc(Nc3ccc(Cl)cc3)n2)cc1"
study_system = "U251 CNS"
result_value = "19.5 µM"

[[record]]
compound_string = "Nc1ccccc1C#CC#Cc1ccccc1N"
study_system = "U251 CNS"
result_value = "8.53 µM"

[[record]]
compound_string = "COc1ccc(CN2C(=O)/C(=C\\c3cc(OC)c(OC)c(OC)c3)c3cc(OC)ccc32)cc1"
study_system = "U251 CNS"
result_value = "1.38 µM"


Switching to the query record.
Exercise: // GI50 lookup, key: O=C(Nc1ccc(-c2nc3cc4ccccc4cc3[nH]2)cc1)c1cccc(Br)c1
Solution: 5.23 µM

###

# Test system: BT-549 breast
# PROTOCOL NOTES: NCI tumour cell line growth inhibition, 48 h
ATTRIBUTE MEASURED: TGI

Here is how some compounds turned out for TGI.
[[record]]
compound_string = "CNc1ccccc1C(=O)N/N=C/C=C/c1ccccc1"
attribute_measured = "TGI"
result_value = "> 100 µM"

[[record]]
compound_string = "C=C(O)c1ccccc1C#Cc1ccccc1C(=O)OC"
attribute_measured = "TGI"
result_value = "> 10 µM"


Exercise: I'd like to know its TGI. The compound in question is CCN(CC)CCn1c(C(C)(C)C)nc2ccccc21
Solution: > 100 µM

###

# Test system: SK-OV-3 ovarian
# PROTOCOL NOTES: NCI tumour cell line growth inhibition, 48 h
The entries below come with measured GI50 values attached.

# example entries with known answers
[[record]]
compound_string = "Cn1c(C(N)=O)cc2c1-c1nc(Nc3ccccc3)ncc1CCC2"
attribute_measured = "GI50"
result_value = "3.51 µM"

[[record]]
compound_string = "CCC1=C(C)/C(=C/c2[nH]c(C)c(C(=O)CCCCC(=O)OC)c2C)N=C1c1ccc[nH]1"
attribute_measured = "GI50"
result_value = "34.6 µM"


Now examine the next entry.
Exercise: Name the reported GI50 value associated with the molecule COc1ccc(C(=O)/C=C/c2ccc(O)c(O)c2F)c(OC)c1
Solution: 17.6 µM

###

# Tested on: NCI-H23 lung
# PROTOCOL NOTES: NCI tumour cell line growth inhibition, 48 h
Each entry below carries its reported GI50.

Worked examples, 5 compounds total:
[[record]]
compound = "O=C(CCN1CCN(c2cccc(Cl)c2)CC1)N1CCc2c([nH]c3ccccc23)C1c1cccnc1 (configuration not stated)"
result_value = "11.2 µM"

[[record]]
compound = "CC1=C(C)C(=O)c2c(c(C(=O)c3ccccc3)c3nc4ccccc4n3c2C)C1=O"
result_value = "46.5 µM"

[[record]]
compound = "O=C(Nc1ccc(-c2nc3cc4ccccc4cc3[nH]2)cc1)c1cccc(Br)c1"
result_value = "19.2 µM"

[[record]]
compound = "N#CC1=C(N)Oc2cc3c(cc2C1c1cccs1)OCO3 (configuration not stated)"
result_value = "0.428 µM"

[[record]]
compound = "Oc1ccc(C(c2ccccc2)(c2ccccc2)c2ccccc2)cc1"
result_value = "14 µM"


Exercise: What measured GI50 goes with COc1ccc(C(=O)Cn2c(C(=O)c3ccc(Cl)cc3)nc3ccccc32)cc1 ?
Solution: > 57.9 µM

Exercise: Please report the recorded GI50 for CN1CCN(Cc2ccc(-c3cc4ncnc(Nc5ccc(OCc6cccc(F)c6)c(Cl)c5)c4s3)o2)CC1 .
Solution: 4.29 µM

###

# Tested on: UACC-62 melanoma
# PROTOCOL NOTES: NCI tumour cell line growth inhibition, 48 h; in the data active means GI50 below about 0.43 µM; inactive means the rest
Your response should consist of one outcome taken from YES for active, NO for inactive

Study these solved cases before continuing.
[[record]]
compound = "COC(=O)/C=C/c1cc(O)c2c(c1)C(C(=O)OC)C(c1ccc(O)c(O)c1)O2 (centres undefined)"
answer_label = "YES"

[[record]]
compound = "O=C1c2ccccc2-c2c1c1ccccc1c(=O)n2CCCNCCCn1c2c(c3ccccc3c1=O)C(=O)c1ccccc1-2"
answer_label = "NO"

[[record]]
compound = "Oc1ccc2ccccc2c1C=NCCCN=Cc1c(O)ccc2ccccc12"
answer_label = "NO"


Note: attention shifts to another entry.
Exercise: Dear all, I need the recorded test outcome for CN(C)CCNC(=O)c1ccc(Nc2nc3ccccc3c3occc23)cc1 , thank you.
Solution: NO
